assay overview: qHTS Assay for Rab9 Promoter Activators; note: nearly all actives have a fitted effect of over 60% in size
test conditions: Huh7 Rab9 promoter-luciferase reporter, luminescence, 24 h; series mostly up to 9.22 µM
Out of some 320,000 compounds screened, about 9,100 (2.8%) were called active. Another 3% or so got no clear call; they are omitted. Calls come from the whole dose curve; as a rule, active = well fitted activation curve with a large enough effect; inconclusive = small, poorly fitted or top-dose-only effect; inactive = no such curve, though single readings can be large or run the other way. The full list was thinned out, with actives kept by preference.
Log the outcome using a class from active, inactive

Field: example entries. Status: answers known.
molecule=Cc1ccc(C)c(OCC(=O)NNC(=O)C2CCC2)c1 qualitative_label=inactive
molecule=O=C1CC[C@H](O)CCN1[C@H](CSc1ccc(Br)cc1)Cc1ccccc1 qualitative_label=inactive
molecule=O=S(=O)(Nc1ccc2nc(N3CCOCC3)sc2c1)c1ccccc1 qualitative_label=active
molecule="CCN(CC)S(=O)(=O)c1ccc(N2CCOCC2)c(NC(=O)C(C)Oc2ccc(F)cc2)c1 (stereo not given)" qualitative_label=inactive
molecule=O=C(CSc1nnc(N2CCOCC2)n1-c1cccc(F)c1)N1CCN(c2ccccn2)CC1 qualitative_label=inactive
molecule=COc1ccccc1C1CCN(C(=S)Nc2ccc(Br)cc2)CC1 qualitative_label=inactive
molecule=CC(=O)Nc1ccc(S(=O)(=O)Nc2ccc(N3CCOCC3)c(F)c2)cc1 qualitative_label=inactive
molecule=CNS(=O)(=O)c1cccc(C(=O)OCCCC(=O)c2ccccc2)c1 qualitative_label=inactive
molecule=Brc1ccc(CN2CC[C@H]3C=CCc4cccc(c43)C2)cc1 qualitative_label=inactive

Proceed to the following item.
**Q:** What classification did COc1ccc(OCCCC(=O)Nc2cccc(S(=O)(=O)N3CCCCCC3)c2)cc1 end up with in this test?
**A:** inactive
